Molecular target: PI3Kδ (p110δ/p85α) Recombinant Human Protein (Homo sapiens (Human))
Assay: PI3Kδ Scintillation Proximity Assay
Counter-ions that a name gives are not always drawn.
measuredMetric: IC50

1) Cc1ccc(S(=O)(=O)NC23CCC(C(N)=O)(C2)C3)cc1-c1cnc2c(N)ncnn12 [Example 110, trifluoroacetate salt] ... 100 to 500 nM
2) Cc1ccc(S(=O)(=O)NC2(C#N)CC2)cc1-c1cnc2c(N)ncnn12 ... 500 to 2000 nM
3) Cc1ccc(S(=O)(=O)N2CCC3(CCOCC3)C2)cc1-c1cnc2c(N)ncnn12 ... 500 to 2000 nM
4) Cc1ccc(S(=O)(=O)NC23CCC(C#N)(C2)C3)cc1-c1cnc2c(N)ncnn12 [Example 251, trifluoroacetate salt] ... 100 to 500 nM
5) Cc1ccc(S(=O)(=O)NCC(C)(C)O)cc1-c1cnc2c(NCc3ccccc3)nc(C(F)(F)F)cn12 ... < 100 nM
6) CC(=O)C12CC(NS(=O)(=O)c3ccc(C)c(-c4cnc5c(N)ncnn45)c3)(C1)C2 [Example 95, trifluoroacetate salt] ... 100 to 500 nM
7) Cc1ccc(S(=O)(=O)N2CCC[C@H]2CO)cc1-c1cnc2c(N)nc(C(F)(F)F)nn12 ... 100 to 500 nM
8) Cc1ccc(S(=O)(=O)N[C@H]2C[C@H](O)C2)cc1-c1cnc2c(N)ncnn12 ... > 2000 nM
9) Cc1ccc(S(=O)(=O)NCC2(O)CNC2)cc1-c1cnc2c(N)nc(C(F)(F)F)nn12 [Example 335, trifluoroacetate salt] ... 100 to 500 nM
10) Cc1ccc(-c2cn3c(-c4cc(S(=O)(=O)N[C@H]5CC[C@H](O)CC5)ccc4C)cnc3c(N)n2)cc1 ... 100 to 500 nM
11) Cc1ccc(S(=O)(=O)N[C@H]2C[C@](O)(C(F)(F)F)C2)cc1-c1cnc2c(N)ncnn12 ... 500 to 2000 nM
12) [2H]C([2H])([2H])c1ccc(S(=O)(=O)N[C@H]2CC[C@H](CC#N)OC2)cc1-c1cnc2c(N)nc(C(F)(F)F)cn12 ... < 100 nM
13) Cc1nc(N)c2ncc(-c3cc(S(=O)(=O)NC45CC(C#N)(C4)C5)ccc3C)n2n1 [Example 270, trifluoroacetate salt] ... 100 to 500 nM
14) Cc1ccc(S(=O)(=O)NC23CC(C#N)(C2)C3)cc1-c1cnc2c(N)ncnn12 ... 100 to 500 nM

* * *

Biological target: PI3Kγ (p110γ) Recombinant Human Protein (Homo sapiens (Human), UniProt P48736)
Sequence (P48736 whole entry): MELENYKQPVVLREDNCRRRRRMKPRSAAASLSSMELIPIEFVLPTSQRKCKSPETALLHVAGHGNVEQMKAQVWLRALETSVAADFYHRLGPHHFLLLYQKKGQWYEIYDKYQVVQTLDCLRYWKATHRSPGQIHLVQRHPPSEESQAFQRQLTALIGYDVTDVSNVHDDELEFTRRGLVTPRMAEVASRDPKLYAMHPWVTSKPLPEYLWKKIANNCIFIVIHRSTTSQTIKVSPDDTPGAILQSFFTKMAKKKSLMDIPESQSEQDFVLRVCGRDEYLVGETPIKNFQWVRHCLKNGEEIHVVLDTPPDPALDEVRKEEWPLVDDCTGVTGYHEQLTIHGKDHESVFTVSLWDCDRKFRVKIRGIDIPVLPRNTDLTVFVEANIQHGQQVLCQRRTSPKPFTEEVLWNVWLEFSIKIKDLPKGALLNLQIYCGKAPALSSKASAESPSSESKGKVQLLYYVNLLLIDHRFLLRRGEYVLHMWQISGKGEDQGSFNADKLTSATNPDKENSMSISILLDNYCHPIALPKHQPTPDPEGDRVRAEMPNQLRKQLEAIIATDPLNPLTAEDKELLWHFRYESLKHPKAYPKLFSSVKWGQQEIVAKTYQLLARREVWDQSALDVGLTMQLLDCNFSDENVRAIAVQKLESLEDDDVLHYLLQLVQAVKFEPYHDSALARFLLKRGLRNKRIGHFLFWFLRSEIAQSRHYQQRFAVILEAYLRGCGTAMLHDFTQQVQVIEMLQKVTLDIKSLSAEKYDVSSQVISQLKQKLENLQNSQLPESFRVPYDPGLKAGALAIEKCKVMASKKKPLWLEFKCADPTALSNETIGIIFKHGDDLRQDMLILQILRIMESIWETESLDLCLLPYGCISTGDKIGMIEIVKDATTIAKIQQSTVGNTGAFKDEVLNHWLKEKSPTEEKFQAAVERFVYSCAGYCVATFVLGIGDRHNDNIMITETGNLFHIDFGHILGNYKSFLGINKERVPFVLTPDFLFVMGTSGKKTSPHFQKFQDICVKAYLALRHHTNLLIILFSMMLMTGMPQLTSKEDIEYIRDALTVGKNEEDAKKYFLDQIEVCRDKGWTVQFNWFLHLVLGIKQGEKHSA
Assay: PI3K-γ Scintillation Proximity Assay
Format: biochemical
measuredMetric: IC50

1. Cc1ccc(S(=O)(=O)N(C)CC2(C)COC2)cc1-c1cnc2c(N)ncnn12 [Example 176] ... 100 to 500 nM

* * *

pIC50 by entry:
Target: PI3Kγ (p110γ) Recombinant Human Protein (Homo sapiens (Human), UniProt P48736)
Experiment: PI3K-γ Scintillation Proximity Assay
Assay type: biochemical
Conditions: read-out: PI3Kγ IC50
pIC50: −log10 of the molar value. Counter-ions that a name gives are not always drawn.
measuredMetric: pIC50

1) Cc1nc(CNS(=O)(=O)c2ccc(C)c(-c3cnc4c(N)ncnn34)c2)no1 ... > 7.00
2) Cc1cccc(-c2cn3c(-c4cc(S(=O)(=O)N[C@H]5CC[C@H](O)CC5)ccc4C)cnc3c(N)n2)c1 ... > 7.00
3) CO[C@H]1CC[C@H](NS(=O)(=O)c2ccc(C)c(-c3cnc4c(N)ncnn34)c2)CC1 ... > 7.00
4) Cc1ccc(S(=O)(=O)N2CC(F)(F)C[C@H]2CO)cc1-c1cnc2c(N)ncnn12 ... > 7.00
5) Cc1ccc(S(=O)(=O)NC23CCC(C(N)=O)(C2)C3)cc1-c1cnc2c(N)nc(C(F)(F)F)cn12 [Example 291, trifluoroacetate salt] ... > 7.00
6) COc1ncccc1-c1cn2c(-c3cc(S(C)(=O)=O)ccc3C)cnc2c(N)n1 [Example 477, trifluoroacetate] ... > 7.00
7) [2H]C([2H])([2H])c1ccc(S(=O)(=O)NC23CCC(O)(C2)C3)cc1-c1cnc2c(N)nc(C)cn12 ... > 7.00

* * *

Biological target: PI3Kδ (p110δ/p85α) Recombinant Human Protein (Homo sapiens (Human))
Experiment: PI3Kδ Scintillation Proximity Assay
pIC50: −log10 of the molar value. Where a name gives a salt, the structure may show the parent alone.
pIC50 by entry:
measuredMetric: pIC50

1) Cc1ccc(S(=O)(=O)N2CC3C(O)C2CN3C(C)C)cc1-c1cnc2c(N)nc(C(F)(F)F)nn12 (stereo not shown) ... 5.70 to 6.30
2) COc1cnccc1-c1cn2c(-c3cc(S(C)(=O)=O)ccc3C)cnc2c(N)n1 [Example 485, trifluoroacetate] ... 6.30 to 7.00
3) Cc1ccc(S(=O)(=O)NCC2(C)COC2)cc1-c1cnc2c(N)cccn12 [Example 3, trifluoroacetate] ... < 5.70
4) Cl.[2H]C([2H])([2H])c1ccc(S(=O)(=O)NC23CCC(C#N)(C2)C3)cc1-c1cnc2c(N)ncnn12 ... 6.30 to 7.00

* * *

Target: PI3Kδ (p110δ/p85α) Recombinant Human Protein (Homo sapiens (Human))
Assay: PI3Kδ Scintillation Proximity Assay
pIC50: −log10 of the molar value. Structures can show the parent of a compound that is named as a salt.
pIC50 by entry:
measuredMetric: pIC50

1) Cc1ccc(S(=O)(=O)N2CC[C@H](O)C2)cc1-c1cnc2c(N)nc(-c3ccc(CO)cc3F)cn12 [Example 506] ... > 7.00
2) Cc1ccc(S(=O)(=O)CC2CC(F)(F)C2)cc1-c1cnc2c(N)ncnn12 [Example 500] ... 5.70 to 6.30
3) Cc1ccc(S(=O)(=O)NC23CC(C(N)=O)(C2)C3)cc1-c1cnc2c(N)nc(C(F)(F)F)cn12 [Example 288, trifluoroacetate salt] ... 6.30 to 7.00
4) Cc1ccc(S(=O)(=O)N2CC3(COC3)C2)cc1-c1cnc2c(N)ncnn12 [Example 143] ... 6.30 to 7.00

* * *

Molecular target: PI3Kδ (p110δ/p85α) Recombinant Human Protein (Homo sapiens (Human), UniProt O00329)
Sequence (O00329 whole entry): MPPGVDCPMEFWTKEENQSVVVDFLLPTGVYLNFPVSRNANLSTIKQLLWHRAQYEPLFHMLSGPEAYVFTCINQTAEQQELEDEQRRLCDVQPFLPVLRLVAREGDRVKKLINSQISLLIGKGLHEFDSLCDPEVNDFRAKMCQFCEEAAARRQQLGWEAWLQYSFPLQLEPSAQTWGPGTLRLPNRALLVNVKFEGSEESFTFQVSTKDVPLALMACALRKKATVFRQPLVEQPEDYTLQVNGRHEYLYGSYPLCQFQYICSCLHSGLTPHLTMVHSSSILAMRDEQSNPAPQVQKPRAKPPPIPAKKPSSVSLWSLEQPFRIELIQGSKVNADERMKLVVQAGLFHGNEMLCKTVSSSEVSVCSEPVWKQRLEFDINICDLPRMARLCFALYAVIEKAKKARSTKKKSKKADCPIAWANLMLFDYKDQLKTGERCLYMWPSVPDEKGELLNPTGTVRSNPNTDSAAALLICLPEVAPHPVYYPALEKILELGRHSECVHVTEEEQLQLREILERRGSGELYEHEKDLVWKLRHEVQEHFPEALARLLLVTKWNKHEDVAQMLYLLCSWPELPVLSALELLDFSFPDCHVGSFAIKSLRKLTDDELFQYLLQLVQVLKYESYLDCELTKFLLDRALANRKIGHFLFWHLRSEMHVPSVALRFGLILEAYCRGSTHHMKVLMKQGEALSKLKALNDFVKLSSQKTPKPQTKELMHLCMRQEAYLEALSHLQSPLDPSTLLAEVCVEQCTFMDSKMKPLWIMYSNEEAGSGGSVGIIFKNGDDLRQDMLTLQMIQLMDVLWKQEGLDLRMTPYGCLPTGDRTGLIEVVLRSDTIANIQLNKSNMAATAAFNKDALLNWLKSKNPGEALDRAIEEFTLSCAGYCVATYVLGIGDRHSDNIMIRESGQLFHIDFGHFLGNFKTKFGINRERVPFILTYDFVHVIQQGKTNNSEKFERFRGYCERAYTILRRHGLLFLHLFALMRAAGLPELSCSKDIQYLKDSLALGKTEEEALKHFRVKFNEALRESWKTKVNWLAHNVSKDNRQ
Sequence (P27986 whole entry partner): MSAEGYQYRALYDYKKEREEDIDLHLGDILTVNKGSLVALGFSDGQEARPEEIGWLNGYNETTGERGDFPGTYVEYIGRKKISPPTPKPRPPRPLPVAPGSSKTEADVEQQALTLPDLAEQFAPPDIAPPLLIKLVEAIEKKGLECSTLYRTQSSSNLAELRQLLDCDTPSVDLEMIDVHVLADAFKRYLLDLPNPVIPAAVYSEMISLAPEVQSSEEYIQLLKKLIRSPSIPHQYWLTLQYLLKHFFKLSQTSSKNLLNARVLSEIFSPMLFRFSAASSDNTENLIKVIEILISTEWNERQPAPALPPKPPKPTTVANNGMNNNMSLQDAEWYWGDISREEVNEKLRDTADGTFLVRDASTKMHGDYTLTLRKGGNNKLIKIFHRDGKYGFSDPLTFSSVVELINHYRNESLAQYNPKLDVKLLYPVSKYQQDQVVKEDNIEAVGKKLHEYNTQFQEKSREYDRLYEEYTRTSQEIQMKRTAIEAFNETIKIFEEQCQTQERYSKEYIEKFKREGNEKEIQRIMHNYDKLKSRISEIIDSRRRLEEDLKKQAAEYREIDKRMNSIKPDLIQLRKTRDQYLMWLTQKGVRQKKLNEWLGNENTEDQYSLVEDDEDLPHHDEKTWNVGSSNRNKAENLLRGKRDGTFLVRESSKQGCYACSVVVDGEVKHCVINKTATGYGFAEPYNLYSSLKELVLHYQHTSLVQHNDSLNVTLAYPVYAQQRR
Experiment: PI3Kδ Scintillation Proximity Assay
Where a name gives a salt, the structure may show the parent alone.
IC50 by entry:
measuredMetric: IC50

1. [2H]C([2H])([2H])c1ccc(S(=O)(=O)NC23CCC(C#N)(C2)C3)cc1-c1cnc2c(N)ncnn12 ... 100 to 500 nM
2. Cc1ccc(S(=O)(=O)NCC2(C)COC2)cc1-c1cnc2c(N)nc(C(F)(F)F)nn12 [Example 318, trifluoroacetate salt] ... 100 to 500 nM
3. Cc1ccc(S(=O)(=O)NCC(C)(C)O)cc1-c1cnc2c(N)nc(C(F)(F)F)nn12 [Example 317, trifluoroacetate salt] ... 100 to 500 nM
4. N#CC12CCC(NS(=O)(=O)c3cc(-c4cnc5c(N)nc(C(F)(F)F)cn45)ccc3F)(C1)C2 [Example 396, trifluoroacetate salt] ... 100 to 500 nM
5. Cc1ccc(S(=O)(=O)N[C@H]2CC[C@H](O)CC2)cc1-c1cnc2c(N)ncnn12 ... 100 to 500 nM
6. Cc1ccc(S(=O)(=O)N2CCC3(CCCOC3)C2)cc1-c1cnc2c(N)ncnn12 (stereo not shown) ... 100 to 500 nM
7. Cc1nc(N)c2ncc(-c3cc(S(=O)(=O)NCC(O)C(F)(F)F)ccc3C)n2n1 (single isomer, unassigned) [Example 267] ... 100 to 500 nM
8. COc1ccc(-c2cnc3c(N)nccn23)cc1S(=O)(=O)N[C@H]1CC[C@H](O)CC1 ... < 100 nM
9. Cc1ccc(S(=O)(=O)NC23CCC(C(C)(C)O)(CC2)C3)cc1-c1cnc2c(N)ncnn12 [Example 431, trifluoroacetate salt] ... 100 to 500 nM
10. Cc1ccc(S(=O)(=O)NC23CCC(CN4CC(F)(F)C4)(CC2)OC3)cc1-c1cnc2c(N)ncnn12 [Example 435, trifluoroacetate salt] ... 100 to 500 nM
11. Cc1ccc(S(C)(=O)=O)cc1-c1cnc2c(N)nc(-c3cccc(CC#N)c3)cn12 [Example 474, trifluoroacetate] ... 100 to 500 nM
12. Cc1ccc(S(=O)(=O)NC23CC(CC#N)(C2)C3)cc1-c1cnc2c(N)ncnn12 [Example 91, trifluoroacetate salt] ... 100 to 500 nM
13. Cc1ccc(S(=O)(=O)[C@@H]2CCC[C@H](O)C2)cc1-c1cnc2c(N)ncnn12 (relative stereo) ... 500 to 2000 nM
14. Cc1ccc(S(=O)(=O)NC23COC(CO)(C2)C3)cc1-c1cnc2c(N)nc(C(F)(F)F)nn12 [Example 427, trifluoroacetate salt] ... 100 to 500 nM
15. Cc1ccc(S(=O)(=O)N[C@H]2CC[C@H](CC#N)OC2)cc1-c1cnc2c(N)nc(C(=O)NC3CCC3)cn12 [Example 450, trifluoroacetate salt] ... 100 to 500 nM
16. CNc1nc(-c2ccccc2F)cn2c(-c3cc(S(=O)(=O)N[C@H]4CC[C@H](O)CC4)ccc3C)cnc12 [Example 36, trifluoroacetate] ... < 100 nM
17. Cc1cn2c(-c3cc(S(=O)(=O)NC45CC(C#N)(C4)C5)ccc3C)cnc2c(N)n1 [Example 264, trifluoroacetate salt] ... 100 to 500 nM
18. Cc1ccc(S(=O)(=O)N2CC(O)(C3CC3)C2)cc1-c1cnc2c(N)nc(C(F)(F)F)nn12 [Example 342, TFA] ... 100 to 500 nM
19. Cc1ccc(S(=O)(=O)NC2CC(F)(F)C2)cc1-c1cnc2c(N)ncnn12 ... 100 to 500 nM
20. Cc1ccc(S(=O)(=O)NC23CCC(C(C)O)(CC2)OC3)cc1-c1cnc2c(N)ncnn12 (racemic) ... 100 to 500 nM
21. Cc1ccc(S(=O)(=O)NC23CC(N4CCOCC4)(C2)C3)cc1-c1cnc2c(N)nc(C(F)(F)F)cn12 [Example 296, trifluoroacetate salt] ... 500 to 2000 nM
22. Cc1ccc(S(=O)(=O)N(C)CC(F)(F)F)cc1-c1cnc2c(N)ncnn12 ... 500 to 2000 nM
23. Cc1ccc(S(=O)(=O)NCC2(CO)CCOCC2)cc1-c1cnc2c(N)ncnn12 ... > 2000 nM
24. Cc1ccc(S(C)(=O)=O)cc1-c1cnc2c(N)nc(-c3ccnn3C)cn12 [Example 479, trifluoroacetate] ... 100 to 500 nM
25. Cc1c(F)cc(S(=O)(=O)NC23CCC(C#N)(C2)C3)cc1-c1cnc2c(N)nc(C(F)(F)F)cn12 [Example 397, trifluoroacetate salt] ... 100 to 500 nM
26. Cc1ccc(S(=O)(=O)N2CC3NCC2C3O)cc1-c1cnc2c(N)nc(C(F)(F)F)cn12 (stereo not shown) ... 500 to 2000 nM
27. Cc1ccc(S(=O)(=O)N2CCC3(CCO3)C2)cc1-c1cnc2c(N)ncnn12 (stereo not shown) ... 500 to 2000 nM
28. Cc1ccc(S(=O)(=O)NCCCO)cc1-c1cnc2c(N)ncnn12 ... > 2000 nM

Data provenance is patent US10479795B2.
